Here the recorded protein stability index is given for each entry.
test system: Saccharomyces cerevisiae; test: protein stability index of tFT-peptide fusion (C-terminal peptide) (PSI (0-1 scale)); higher = more stable (slower turnover); settings: genetic background: wild type; temperature: 30 C

polymer sequence: GGVWLSVVSWVG
target entity: Saccharomyces cerevisiae
protein stability index: 0.0976
--
polymer sequence: WFLLSLSSFVSS
target entity: Saccharomyces cerevisiae
protein stability index: 0.351
--
polymer sequence: RLGSLVPLAKQL
target entity: Saccharomyces cerevisiae
protein stability index: 0.289
--
polymer sequence: VSGEWSFLVRVQ
target entity: Saccharomyces cerevisiae
protein stability index: 0.411
--
polymer sequence: LAFMYFVCPRLA
target entity: Saccharomyces cerevisiae
protein stability index: 0.269
--
polymer sequence: RGLANLIVIVSS
target entity: Saccharomyces cerevisiae
protein stability index: 0.228
--
polymer sequence: LACGIDGYYWRH
target entity: Saccharomyces cerevisiae
protein stability index: 0.682
--
polymer sequence: LGVLVVAFCGGC
target entity: Saccharomyces cerevisiae
protein stability index: 0.347
--
polymer sequence: CMIACYALLRLL
target entity: Saccharomyces cerevisiae
protein stability index: 0.0777
--
polymer sequence: FFLKPVPSLFLC
target entity: Saccharomyces cerevisiae
protein stability index: 0.0677
--
polymer sequence: FFSLMFVFLTVF
target entity: Saccharomyces cerevisiae
protein stability index: 0.164
--
polymer sequence: VFDFVFHLRFVV
target entity: Saccharomyces cerevisiae
protein stability index: 0.0905
--
polymer sequence: LFSIFMSYRVYI
target entity: Saccharomyces cerevisiae
protein stability index: 0.312
--
polymer sequence: EKKRERQKGEME
target entity: Saccharomyces cerevisiae
protein stability index: 0.635
--
polymer sequence: RRVLVVPCIWHM
target entity: Saccharomyces cerevisiae
protein stability index: 0.223
--
polymer sequence: YYKGGYLYLRLS
target entity: Saccharomyces cerevisiae
protein stability index: 0.15
--
polymer sequence: SVLSFGVFCLVG
target entity: Saccharomyces cerevisiae
protein stability index: 0.427
--
polymer sequence: VVVFGWIGYLYL
target entity: Saccharomyces cerevisiae
protein stability index: 0.288
--
polymer sequence: WDLYFSVVYRVV
target entity: Saccharomyces cerevisiae
protein stability index: 0.0544
--
polymer sequence: VLVTFFIRSGVS
target entity: Saccharomyces cerevisiae
protein stability index: 0.338
--
polymer sequence: VCVFFRLCIVWY
target entity: Saccharomyces cerevisiae
protein stability index: 0.103
--
polymer sequence: VVACCVVFWVLP
target entity: Saccharomyces cerevisiae
protein stability index: 0.292
--
polymer sequence: LINHSWLLLSVL
target entity: Saccharomyces cerevisiae
protein stability index: 0.133
--
polymer sequence: LLFGCLIRIGCS
target entity: Saccharomyces cerevisiae
protein stability index: 0.253
--
polymer sequence: NDSSWEVSLMVG
target entity: Saccharomyces cerevisiae
protein stability index: 0.62
--
polymer sequence: FILSLSFVFSRP
target entity: Saccharomyces cerevisiae
protein stability index: 0.441
--
polymer sequence: ALLIYFLCRCIP
target entity: Saccharomyces cerevisiae
protein stability index: 0.33
--
polymer sequence: LIICRSFLCKVR
target entity: Saccharomyces cerevisiae
protein stability index: 0.174
--
polymer sequence: PGRHSVRFVFVC
target entity: Saccharomyces cerevisiae
protein stability index: 0.112
--
polymer sequence: TGPVFVSFRLLH
target entity: Saccharomyces cerevisiae
protein stability index: 0.405
--
polymer sequence: EWGLGEIVVKVA
target entity: Saccharomyces cerevisiae
protein stability index: 0.162
--
polymer sequence: GGWSLFCIVVVV
target entity: Saccharomyces cerevisiae
protein stability index: 0.173
--
polymer sequence: LGRFHLACLLFL
target entity: Saccharomyces cerevisiae
protein stability index: 0.412
--
polymer sequence: CLFLNCRFYMFL
target entity: Saccharomyces cerevisiae
protein stability index: 0.796
--
polymer sequence: DQPLWIGVLAYC
target entity: Saccharomyces cerevisiae
protein stability index: 0.325
--
polymer sequence: SSFPGPPLPPDP
target entity: Saccharomyces cerevisiae
protein stability index: 0.7
--
polymer sequence: VLVCYFCRYISH
target entity: Saccharomyces cerevisiae
protein stability index: 0.398
--
polymer sequence: VWVAWLGGAILA
target entity: Saccharomyces cerevisiae
protein stability index: 0.194
--
polymer sequence: KKHKKGQKQKIN
target entity: Saccharomyces cerevisiae
protein stability index: 0.0729
--
polymer sequence: GGLFRWCVWRIV
target entity: Saccharomyces cerevisiae
protein stability index: 0.102
--
polymer sequence: GIFVWWFWGCCG
target entity: Saccharomyces cerevisiae
protein stability index: 0.321
--
polymer sequence: RVFRRFCCVISM
target entity: Saccharomyces cerevisiae
protein stability index: 0.339
--
polymer sequence: RFLFYSFPIHTL
target entity: Saccharomyces cerevisiae
protein stability index: 0.0745
--
polymer sequence: GGCYAGVAMRLI
target entity: Saccharomyces cerevisiae
protein stability index: 0.62
--
polymer sequence: CFFFCSLFLSFL
target entity: Saccharomyces cerevisiae
protein stability index: 0.35
--
polymer sequence: LFFWVLTVMFVW
target entity: Saccharomyces cerevisiae
protein stability index: 0.195
--
polymer sequence: PYPPTSLPPTWQ
target entity: Saccharomyces cerevisiae
protein stability index: 0.671
--
polymer sequence: TSFLHLFVAAII
target entity: Saccharomyces cerevisiae
protein stability index: 0.434
--
polymer sequence: SLSIFCLMLMLF
target entity: Saccharomyces cerevisiae
protein stability index: 0.406
--
polymer sequence: VYVRYYVRVVVI
target entity: Saccharomyces cerevisiae
protein stability index: 0.046
--
polymer sequence: VLLSSSLVFLIS
target entity: Saccharomyces cerevisiae
protein stability index: 0.416
--
polymer sequence: LDLSSVFILYFN
target entity: Saccharomyces cerevisiae
protein stability index: 0.28
--
polymer sequence: SVVFFYPPIFHA
target entity: Saccharomyces cerevisiae
protein stability index: 0.326
--
polymer sequence: VFFTSLPPLLRA
target entity: Saccharomyces cerevisiae
protein stability index: 0.37
--
polymer sequence: LLVCLGYFLFLG
target entity: Saccharomyces cerevisiae
protein stability index: 0.288
--
polymer sequence: VVVHFVLVCSTS
target entity: Saccharomyces cerevisiae
protein stability index: 0.13
--
polymer sequence: CPALYMPPPVLV
target entity: Saccharomyces cerevisiae
protein stability index: 0.182
--
polymer sequence: LFSVLVFIYFVM
target entity: Saccharomyces cerevisiae
protein stability index: 0.133
--
polymer sequence: SIIRHLFHPSST
target entity: Saccharomyces cerevisiae
protein stability index: 0.659
--
polymer sequence: CFFSLLLLIFSV
target entity: Saccharomyces cerevisiae
protein stability index: 0.31
--
polymer sequence: AGTLLLGYGILA
target entity: Saccharomyces cerevisiae
protein stability index: 0.349
--
polymer sequence: DYRCWCAILVSS
target entity: Saccharomyces cerevisiae
protein stability index: 0.172
--
polymer sequence: PPPPPPPFLFFL
target entity: Saccharomyces cerevisiae
protein stability index: 0.472
--
polymer sequence: RRLRPQTVAFLS
target entity: Saccharomyces cerevisiae
protein stability index: 0.176
--
polymer sequence: SVVYSVWIYLLH
target entity: Saccharomyces cerevisiae
protein stability index: 0.213
--
polymer sequence: FLFPFLSVLFLL
target entity: Saccharomyces cerevisiae
protein stability index: 0.176
--
polymer sequence: PFFCFLLFCFSL
target entity: Saccharomyces cerevisiae
protein stability index: 0.419
--
polymer sequence: FFLFFLSFGCFL
target entity: Saccharomyces cerevisiae
protein stability index: 0.459
--
polymer sequence: WSISFGLLVCWV
target entity: Saccharomyces cerevisiae
protein stability index: 0.191
--
polymer sequence: FVWAVGLVSASV
target entity: Saccharomyces cerevisiae
protein stability index: 0.414
--
polymer sequence: GMGHLSNVCLKT
target entity: Saccharomyces cerevisiae
protein stability index: 0.645
--
polymer sequence: FLLFSFFFFFFF
target entity: Saccharomyces cerevisiae
protein stability index: 0.384
--
polymer sequence: IVRLGRWLGLSC
target entity: Saccharomyces cerevisiae
protein stability index: 0.261
--
polymer sequence: AGLTLLWPLCLL
target entity: Saccharomyces cerevisiae
protein stability index: 0.265
--
polymer sequence: CKRWGVVSYVFV
target entity: Saccharomyces cerevisiae
protein stability index: 0.441
--
polymer sequence: VCMHIVLLAASP
target entity: Saccharomyces cerevisiae
protein stability index: 0.202
--
polymer sequence: PWFCYVQLVVPV
target entity: Saccharomyces cerevisiae
protein stability index: 0.221
--
polymer sequence: RFHTFVFCLLCL
target entity: Saccharomyces cerevisiae
protein stability index: 0.277
--
polymer sequence: GFYQSGGLVVVV
target entity: Saccharomyces cerevisiae;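 further: PSI is a weighted mean of sequencing reads over stability bins, variants kept only with over 10 reads, mCherry proximal and sfGFP distal, peptide attached via GGGS linker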
protein stability index: 0.515
